- Measured target: human NK1 receptor (Homo sapiens, UniProt P25103)
- Sequence (P25103 whole entry): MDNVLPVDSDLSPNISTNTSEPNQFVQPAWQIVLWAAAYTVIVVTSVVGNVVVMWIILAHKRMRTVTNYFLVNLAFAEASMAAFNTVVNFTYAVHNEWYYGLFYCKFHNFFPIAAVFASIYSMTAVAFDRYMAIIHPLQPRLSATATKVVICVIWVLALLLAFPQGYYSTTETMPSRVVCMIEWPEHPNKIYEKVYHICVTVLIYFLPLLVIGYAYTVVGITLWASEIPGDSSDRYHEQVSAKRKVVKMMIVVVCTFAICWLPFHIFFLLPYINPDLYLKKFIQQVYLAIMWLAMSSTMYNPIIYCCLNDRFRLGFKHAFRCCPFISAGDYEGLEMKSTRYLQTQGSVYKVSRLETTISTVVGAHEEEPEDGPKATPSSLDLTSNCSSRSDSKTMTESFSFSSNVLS
- Experiment summary: NK1 receptor binding, [3H]substance P displacement, CHO cell membranes
- Experimental setup: first value of the cell pKi NK1/NK3; human NK1 receptor, [3H]substance P
pKi: −log10 of the molar value.
Measurement type: pKi

[
  {
    "Compound": "Cc1cc(F)ccc1-c1cc(N2C[C@H](O)C[C@H]2CO)ncc1N(C)C(=O)C(C)(C)c1cc(Cl)cc(OC(F)F)c1",
    "pKi": 8.98
  }
]

A: CC(O)CNc1cc(-c2ccccc2Cl)c(N(C)C(=O)C(C)(C)c2cc(C(F)(F)F)cc(C(F)(F)F)c2)cn1 (racemic)
B: C[C@@H](O)[C@@H](CO)Nc1cc(-c2ccccc2Cl)c(N(C)C(=O)C(C)(C)c2cc(C(F)(F)F)cc(C(F)(F)F)c2)cn1
Q: Consider entries A and B . Which has the numerically lower pKi? Give the label under which the chosen entry appears.
A: B
(B: 8.44, A: 9.06)

====

- Measured target: Recombinant human NK3 (hNK3) receptor (Homo sapiens)
- Construct: expressed in transfected cells
- Experiment summary: NK3 receptor binding, [3H]SR142801 displacement, membrane preparations
- Experimental setup: second value of the cell pKi NK1/NK3; hNK3 receptor, [3H]SR142801
Measurement type: Ki (nM)

Some solved entries appear below for comparison.
[
  {
    "Smiles structure": "COc1cc(Cl)cc(C(C)(C)C(=O)N(C)c2cnc(N3CCC[C@H]3CO)cc2-c2ccccc2C)c1",
    "Unit of measure": "nM",
    "Ki": 3.16
  },
  {
    "Smiles structure": "Cc1cc(F)ccc1-c1cc(NC(CO)CO)ncc1N(C)C(=O)C(C)(C)c1cc(C(F)(F)F)cc(C(F)(F)F)c1",
    "Unit of measure": "nM",
    "Ki": 2.57
  },
  {
    "Smiles structure": "CN(C(=O)C(C)(C)c1cc(C(F)(F)F)cc(C(F)(F)F)c1)c1cnc(N(CCO)CCO)cc1-c1ccccc1Br",
    "Unit of measure": "nM",
    "Ki": 2.19
  },
  {
    "Smiles structure": "CN(C(=O)C(C)(C)c1cc(F)cc(C(F)(F)F)c1)c1cnc(N2CCC[C@H]2CO)cc1-c1ccccc1Cl",
    "Unit of measure": "nM",
    "Ki": 1.55
  },
  {
    "Smiles structure": "CCN(C(C)=O)[C@H]1CCN(c2cc(-c3ccc(F)cc3C)c(N(C)C(=O)C(C)(C)c3cc(C(F)(F)F)cc(C(F)(F)F)c3)cn2)C1",
    "Unit of measure": "nM",
    "Ki": 8.91
  },
  {
    "Smiles structure": "Cc1cc(F)ccc1-c1cc(N2CCC[C@H]2CO)ncc1N(C)C(=O)C(C)(C)c1cc(C(F)(F)F)cc(C(F)(F)F)c1",
    "Unit of measure": "nM",
    "Ki": 1.1
  },
  {
    "Smiles structure": "Cc1cc(F)ccc1-c1cc(N2CCC[C@H]2CO)ncc1N(C)C(=O)C(C)(C)c1cc(F)cc(F)c1",
    "Unit of measure": "nM",
    "Ki": 3.98
  },
  {
    "Smiles structure": "CN(C(=O)C(C)(C)c1cc(C(F)(F)F)cc(C(F)(F)F)c1)c1cnc(N2C[C@H](O)C[C@H]2CO)cc1-c1ccccc1",
    "Unit of measure": "nM",
    "Ki": 8.71
  },
  {
    "Smiles structure": "C[C@H](CO)Nc1cc(-c2ccccc2Cl)c(N(C)C(=O)C(C)(C)c2cc(C(F)(F)F)cc(C(F)(F)F)c2)cn1",
    "Unit of measure": "nM",
    "Ki": 8.91
  },
  {
    "Smiles structure": "Cc1cc(C)cc(C(C)(C)C(=O)N(C)c2cnc(N3C[C@H](O)C[C@H]3CO)cc2-c2ccccc2C)c1",
    "Unit of measure": "nM",
    "Ki": 6.17
  }
]

A: CN(C(=O)C(C)(C)c1cc(C(F)(F)F)cc(C(F)(F)F)c1)c1cnc(N2C[C@H](O)C[C@H]2CO)cc1-c1cccc(Br)c1
B: CN(C(=O)C(C)(C)c1cc(F)cc(C(F)(F)F)c1)c1cnc(N2C[C@H](O)C[C@H]2CO)cc1-c1ccccc1Cl
Q: Which numeric Ki is bigger, that of A or that of B ? Give the label under which the chosen entry appears.
A: A
(A: 8.51 nM, B: 1.74 nM)

A: Cc1cc(F)ccc1-c1cc(NC[C@H](C)O)ncc1N(C)C(=O)C(C)(C)c1cc(C(F)(F)F)cc(C(F)(F)F)c1
B: CN(C(=O)C(C)(C)c1cc(C(F)(F)F)cc(C(F)(F)F)c1)c1cnc(N(CCO)CCCO)cc1-c1ccccc1Cl
Q: Which numeric Ki is bigger, that of A or that of B ? Give the label under which the chosen entry appears.
A: A

====

- Measured target: Recombinant human NK3 (hNK3) receptor (Homo sapiens, UniProt P29371)
- Construct: expressed in transfected cells
- Sequence (P29371 whole entry): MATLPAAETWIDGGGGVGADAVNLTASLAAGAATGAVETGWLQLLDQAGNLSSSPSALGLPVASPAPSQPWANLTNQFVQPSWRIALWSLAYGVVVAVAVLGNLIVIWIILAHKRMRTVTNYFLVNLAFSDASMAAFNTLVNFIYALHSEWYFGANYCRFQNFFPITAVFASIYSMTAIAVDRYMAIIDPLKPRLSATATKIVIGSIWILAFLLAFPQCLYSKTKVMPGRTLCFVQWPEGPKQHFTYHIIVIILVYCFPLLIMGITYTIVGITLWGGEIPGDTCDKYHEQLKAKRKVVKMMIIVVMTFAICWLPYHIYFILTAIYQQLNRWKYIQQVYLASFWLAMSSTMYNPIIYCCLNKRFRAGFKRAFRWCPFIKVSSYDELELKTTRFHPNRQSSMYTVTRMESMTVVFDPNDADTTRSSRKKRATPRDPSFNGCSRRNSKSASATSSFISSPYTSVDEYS
- Experiment summary: NK3 receptor binding, [3H]SR142801 displacement, membrane preparations
- Experimental setup: second value of the cell pKi NK1/NK3; hNK3 receptor, [3H]SR142801
pKi: −log10 of the molar value.
Measurement type: pKi

Some solved entries appear below for comparison.
[
  {
    "Molecule": "CCN(C(C)=O)[C@@H]1CCN(c2cc(-c3ccc(F)cc3C)c(N(C)C(=O)C(C)(C)c3cc(C(F)(F)F)cc(C(F)(F)F)c3)cn2)C1",
    "Measured target": "Recombinant human NK3 (hNK3) receptor (Homo sapiens, UniProt P29371)",
    "pKi": 7.88
  },
  {
    "Molecule": "Cc1ccccc1-c1cc(N2CC[C@H](O)C[C@@H]2CO)ncc1N(C)C(=O)C(C)(C)c1cc(C(F)(F)F)cc(C(F)(F)F)c1 (racemic)",
    "Measured target": "Recombinant human NK3 (hNK3) receptor (Homo sapiens, UniProt P29371)",
    "pKi": 8.39
  }
]

A: CN(C(=O)C(C)(C)c1cc(C(F)(F)F)cc(C(F)(F)F)c1)c1cnc(NCCO)cc1-c1ccc(Cl)cc1Cl
B: Cc1ccccc1-c1cc(N2CC(O)C2)ncc1N(C)C(=O)C(C)(C)c1cc(C(F)(F)F)cc(C(F)(F)F)c1
Q: Which numeric pKi is bigger, that of A or that of B ? Give the label under which the chosen entry appears.
A: A
(A: 8.39, B: 7.55)

A: Cc1cc(F)ccc1-c1cc(N2CC[C@H](N)C2)ncc1N(C)C(=O)C(C)(C)c1cc(C(F)(F)F)cc(C(F)(F)F)c1
B: CC(=O)N[C@H]1C[C@@H](CO)N(c2cc(-c3ccccc3Cl)c(N(C)C(=O)C(C)(C)c3cc(C(F)(F)F)cc(C(F)(F)F)c3)cn2)C1
Q: Which numeric pKi is bigger, that of A or that of B ? Give the label under which the chosen entry appears.
A: B

I: Cc1cc(F)ccc1-c1cc(N2CCC[C@H]2CO)ncc1N(C)C(=O)C(C)(C)c1cc(Cl)cc(Cl)c1
II: Cc1cc(F)ccc1-c1cc(N2CCC[C@H]2CO)ncc1N(C)C(=O)C(C)(C)c1cccc(C(F)(F)F)c1
Q: Consider entries I and II . Which has the numerically lower pKi? Give the label under which the chosen entry appears.
A: II

A: CN(C(=O)C(C)(C)c1cc(C(F)(F)F)cc(C(F)(F)F)c1)c1cnc(N2CC[C@H](O)[C@H]2CO)cc1-c1ccccc1Br
B: CN(C(=O)C(C)(C)c1cc(C(F)(F)F)cc(C(F)(F)F)c1)c1cnc(N2CCC(S(C)(=O)=O)C2)cc1-c1ccccc1Cl (racemic)
C: CN(C(=O)C(C)(C)c1cc(C(F)(F)F)cc(C(F)(F)F)c1)c1cnc(NCC(C)(C)O)cc1-c1ccccc1Cl
Q: Form: Sort by [pKi] Order [ ascending ] Rank the items, then write their labels in that order.
A: C, A, B
(C: 7.91, A: 8.64, B: 8.89)

a: CN(C(=O)C(C)(C)c1cc(Cl)cc(Cl)c1)c1cnc(N2C[C@H](O)C[C@H]2CO)cc1-c1ccccc1Cl
b: Cc1ccccc1-c1cc(N2C[C@H](O)C[C@H]2CO)ncc1N(C)C(=O)C(C)(C)c1cc(Cl)cc(Cl)c1
Q: Consider entries a and b . Which has the numerically lower pKi? Give the label under which the chosen entry appears.
A: b

====

- Measured target: Recombinant human NK3 (hNK3) receptor (Homo sapiens)
- Construct: expressed in transfected cells
- Experiment summary: NK3 receptor binding, [3H]SR142801 displacement, membrane preparations
- Experimental setup: second value of the cell pKi NK1/NK3; hNK3 receptor, [3H]SR142801
Measurement type: Ki (nM)

[
  {
    "Compound": "Cc1cc(F)ccc1-c1cc(N2CCC[C@H]2CO)ncc1N(C)C(=O)C(C)(C)c1cc(F)cc(C(F)(F)F)c1",
    "Unit of measure": "nM",
    "Reported measurement": 0.891
  },
  {
    "Compound": "CN(C(=O)C(C)(C)c1cc(C(F)(F)F)cc(C(F)(F)F)c1)c1cnc(N2CCCCC2CCO)cc1-c1ccccc1Cl (racemic)",
    "Unit of measure": "nM",
    "Reported measurement": 24.5
  },
  {
    "Compound": "C[C@@H](CO)Nc1cc(-c2ccccc2Cl)c(N(C)C(=O)C(C)(C)c2cc(C(F)(F)F)cc(C(F)(F)F)c2)cn1",
    "Unit of measure": "nM",
    "Reported measurement": 10.5
  },
  {
    "Compound": "Cc1cc(F)ccc1-c1cc(N(CCO)CCCO)ncc1N(C)C(=O)C(C)(C)c1cc(C(F)(F)F)cc(C(F)(F)F)c1",
    "Unit of measure": "nM",
    "Reported measurement": 2.29
  },
  {
    "Compound": "CN(C(=O)C(C)(C)c1cc(C(F)(F)F)cc(C(F)(F)F)c1)c1cnc(N2C[C@H](O)C[C@H]2CO)cc1-c1cccc(Cl)c1",
    "Unit of measure": "nM",
    "Reported measurement": 15.8
  }
]

I: Cc1c(F)cccc1-c1cc(N2CCC[C@H]2CO)ncc1N(C)C(=O)C(C)(C)c1cc(C(F)(F)F)cc(C(F)(F)F)c1
II: CN(C(=O)C(C)(C)c1cc(C(F)(F)F)cc(C(F)(F)F)c1)c1cnc(N(CCO)CCO)cc1-c1ccc(Cl)c(Cl)c1
III: CN(CCO)c1cc(-c2ccccc2Cl)c(N(C)C(=O)C(C)(C)c2cc(C(F)(F)F)cc(C(F)(F)F)c2)cn1
Q: Form: Sort by [Ki] Order [ ascending ] Rank the items, then write their labels in that order.
A: I, III, II
(I: 0.977 nM, III: 2.69 nM, II: 9.55 nM)
